Just for reference, ChEMBL document CHEMBL2440043 is where these values come from.

Target: Aldo-keto reductase family 1 member B1 (Homo sapiens, UniProt P15121)
Assay: Inhibition of human recombinant N-terminal His6-tagged AKR1B1 expressed in Escherichia coli by fluorescence assay in presence of NADPH
Label Y when IC50 is strictly below 20 nM; otherwise label N.

O=C(Nc1ccccn1)c1cc2ccc(O)cc2o/c1=N\c1ccc(O)cc1 ... N
COc1ccc(/N=c2\oc3cc(O)ccc3cc2C(=O)NC(C)C)cc1 ... Y
CCCCNC(=O)c1cc2ccc(O)cc2o/c1=N\c1ccc(OC)cc1 ... N
COc1ccc(/N=c2\oc3cc(O)ccc3cc2C(=O)NCc2ccccc2)cc1 ... N
O=C(Nc1ccccn1)c1cc2ccc(O)cc2o/c1=N\c1ccc(I)cc1 ... Y
COc1ccc(/N=c2\oc3cc(O)ccc3cc2C(=O)NCCCO)cc1 ... N
Cc1ccc(/N=c2\oc3cc(O)ccc3cc2C(=O)Nc2ccccn2)cc1 ... N
COc1ccc(/N=c2\oc3cccc(O)c3cc2C(=O)Nc2ccccn2)cc1 ... N
COc1ccc(/N=c2\oc3ccc(O)cc3cc2C(=O)Nc2ccccn2)cc1 ... N

====

Molecular target: Aldo-keto reductase family 1 member B10 (Homo sapiens)
Assay: Competitive inhibition of wild-type human recombinant N-terminal His6-tagged AKR1B10 expressed in Escherichia coli using geraniol as substrate by double-reciprocal plot analysis in presence of NADP+
pKi: −log10 of the molar value.
endpoint-name: pKi

COc1ccc(/N=c2\oc3cc(O)ccc3cc2C(=O)NCc2ccccc2)cc1 ... 8.89

====

Form field: IC50 (one value per entry).
Molecular target: Aldo-keto reductase family 1 member B10 (Homo sapiens)
Experiment: Inhibition of human recombinant N-terminal His6-tagged AKR1B10 expressed in Escherichia coli by fluorescence assay in presence of NADPH
endpoint-name: IC50 (nM)

COc1ccc(/N=c2\oc3cc(O)ccc3cc2C(=O)NCC(C)C)cc1 ... 16
O=C(O)c1ccc(/N=c2\oc3cc(O)ccc3cc2C(=O)Nc2ccccn2)cc1 ... 7.6
COc1ccc(/N=c2\oc3cc(O)ccc3cc2C(=O)NCc2ccccc2)cc1 ... 4.7
COc1ccc(/N=c2\oc3cc(O)ccc3cc2C(=O)NCCO)cc1 ... 11
Cc1ccc(/N=c2\oc3cc(O)ccc3cc2C(=O)Nc2ccccn2)cc1 ... 8.6
COc1ccc(/N=c2\oc3cc(O)ccc3cc2C(=O)NCCCO)cc1 ... 8.8
O=C(Nc1ccccn1)c1cc2ccc(O)cc2o/c1=N\c1ccc(O)cc1 ... 6.8
O=C(O)Cc1ccc(/N=c2\oc3cc(O)ccc3cc2C(=O)Nc2ccccn2)cc1 ... 13
COc1ccc(/N=c2\oc3cc(O)ccc3cc2C(=O)NC(C)C)cc1 ... 9.7
O=C(Nc1ccccn1)c1cc2ccc(O)cc2o/c1=N\c1ccc(I)cc1 ... 13
CCCCNC(=O)c1cc2ccc(O)cc2o/c1=N\c1ccc(OC)cc1 ... 18
COc1ccc(/N=c2\oc3cc(O)ccc3cc2C(=O)NC2CCCCC2)cc1 ... 11
O=C(Nc1ccccn1)c1cc2ccc(O)cc2o/c1=N\c1ccccc1 ... 12
O=C(Nc1ccccn1)c1cc2ccc(O)cc2o/c1=N\c1ccc(Br)cc1 ... 14

====

Molecular target: Aldo-keto reductase family 1 member B10 (Homo sapiens, UniProt O60218, Q303S)
Sequence (O60218 whole entry Q303S): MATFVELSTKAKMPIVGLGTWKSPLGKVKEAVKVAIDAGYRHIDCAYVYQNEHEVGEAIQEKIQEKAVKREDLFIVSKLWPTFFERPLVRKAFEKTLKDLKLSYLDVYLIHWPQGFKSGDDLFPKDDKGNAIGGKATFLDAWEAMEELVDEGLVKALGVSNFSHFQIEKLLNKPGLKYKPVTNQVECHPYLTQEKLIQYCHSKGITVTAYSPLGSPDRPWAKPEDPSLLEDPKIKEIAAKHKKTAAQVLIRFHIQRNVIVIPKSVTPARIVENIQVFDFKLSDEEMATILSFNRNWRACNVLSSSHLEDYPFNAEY
Experiment: Competitive inhibition of human recombinant AKR1B10 Q303S mutant expressed in Escherichia coli using geraniol as substrate by double-reciprocal plot analysis in presence of NADP+
endpoint-name: Ki (nM)

COc1ccc(/N=c2\oc3cc(O)ccc3cc2C(=O)NCc2ccccc2)cc1 ... 3.8

====

Biological target: Aldo-keto reductase family 1 member B1 (Homo sapiens)
Experiment: Inhibition of human recombinant N-terminal His6-tagged AKR1B1 expressed in Escherichia coli by fluorescence assay in presence of NADPH
pIC50: −log10 of the molar value.
endpoint-name: pIC50

O=C(Nc1ccccn1)c1cc2ccc(O)cc2o/c1=N\c1ccccc1 ... 7.47
COc1ccc(/N=c2\oc3cc(O)ccc3cc2C(=O)NCCO)cc1 ... 7.70
O=C(Nc1ccccn1)c1cc2ccc(O)cc2o/c1=N\c1ccc(Br)cc1 ... 7.60
O=C(O)c1ccc(/N=c2\oc3cc(O)ccc3cc2C(=O)Nc2ccccn2)cc1 ... 7.72
COc1ccc(/N=c2\oc3cc(O)ccc3cc2C(=O)NC2CCCCC2)cc1 ... 7.57
COc1ccc(/N=c2\oc3cc(O)ccc3cc2C(=O)NCC(C)C)cc1 ... 7.55
